Target: T1, recombinant antigen of the extracellular region of CD47 (Sino Biological, Cat: 12283-H08H) (human, UniProt Q08722 19-139)
T1 construct: extracellular domain; also called recombinant CD47 extracellular region; CD47 recombinant protein
T1 sequence (Q08722 19-139 limits assumed): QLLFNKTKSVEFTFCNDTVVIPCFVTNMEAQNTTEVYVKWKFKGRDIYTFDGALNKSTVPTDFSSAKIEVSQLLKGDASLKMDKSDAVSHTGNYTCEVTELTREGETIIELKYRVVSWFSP
Assay: Fortebio BLI, antibody on AHC sensor, CD47 extracellular region 100 nM;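 further: antibody held on the sensor through anti-human Fc capture, CD47 antigen in solution, association and dissociation phases each lasting 300 s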
property: kon

binder | obs.value
hz140-Hm4/hz182-L (antibody, V domains shown) VH: QVQLVQSGAEVKKPGASVKVSCKASGYKFTNYVMSWVRQAPGQRLEWMGYINPYNDGIKYNEKFTGRVTITRDTSASTAYMELSSLRSEDTAVYYCAREGDFYANYGRLGFAYWGQGTLVTVSS VL: DIQMTQSPSSLSASVGDRVTITCRASQDISNYLNWYQQKPGKAPKLLLYYTSRLHSGVPSRFSGSGSGTDYTLTISSLQPEDFATYFCQQGAGRPYTFGGGTKVEIK | 286000 M⁻¹ s⁻¹
hz140-Hm8/hz182-L (antibody, V domains shown) VH: QVQLVQSGAEVKKPGASVKVSCKASGYKFTNYVMHWVRQAPGQRLEWMGYINPYNDGIKYNEKFTGRVTITRDTSASTAYMELSSLRSEDTAVYYCAREGDFYANYGRLGFDYWGQGTLVTVSS VL: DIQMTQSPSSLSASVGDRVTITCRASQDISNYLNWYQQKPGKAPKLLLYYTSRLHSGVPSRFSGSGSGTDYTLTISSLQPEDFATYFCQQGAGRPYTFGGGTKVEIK | 213000 M⁻¹ s⁻¹
hz140-H/hz182-L (antibody, V domains shown, Hybrid antibody: heavy chain of hz140 with the light chain of hz182) VH: QVQLVQSGAEVKKPGASVKVSCKASGYKFTNYVMHWVRQAPGQRLEWMGYINPYNDGIKYNEKFTGRVTITRDTSASTAYMELSSLRSEDTAVYYCAREGDFYANYGRLGFAYWGQGTLVTVSS VL: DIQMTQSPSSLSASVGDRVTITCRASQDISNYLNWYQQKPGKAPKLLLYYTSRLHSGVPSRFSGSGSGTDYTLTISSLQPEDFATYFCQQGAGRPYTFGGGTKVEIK | 315000 M⁻¹ s⁻¹
hz140-Hm5/hz182-L (antibody, V domains shown) VH: QVQLVQSGAEVKKPGASVKVSCKASGYKFTNYVMHWVRQAPGQRLEWMGWINPYNDGIKYNEKFTGRVTITRDTSASTAYMELSSLRSEDTAVYYCAREGDFYANYGRLGFAYWGQGTLVTVSS VL: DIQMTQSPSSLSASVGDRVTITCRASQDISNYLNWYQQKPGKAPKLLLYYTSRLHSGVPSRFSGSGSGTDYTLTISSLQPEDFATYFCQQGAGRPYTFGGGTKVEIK | 151000 M⁻¹ s⁻¹
hz140-Hm10/hz182-L (antibody, V domains shown) VH: QVQLVQSGAEVKKPGASVKVSCKASGYKFTNYVMHWVRQAPGQRLEWMGYINPYNEGIKYNEKFTGRVTITRDTSASTAYMELSSLRSEDTAVYYCAREGDFYANYGRLGFAYWGQGTLVTVSS VL: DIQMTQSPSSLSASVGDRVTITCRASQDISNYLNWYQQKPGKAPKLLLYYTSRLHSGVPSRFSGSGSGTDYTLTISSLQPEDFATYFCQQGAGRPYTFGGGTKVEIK | 206000 M⁻¹ s⁻¹
hz140-Hm2/hz182-L (antibody, V domains shown) VH: QVQLVQSGAEVKKPGASVKVSCKASGYKFTSYVMHWVRQAPGQRLEWMGYINPYNDGIKYNEKFTGRVTITRDTSASTAYMELSSLRSEDTAVYYCAREGDFYANYGRLGFAYWGQGTLVTVSS VL: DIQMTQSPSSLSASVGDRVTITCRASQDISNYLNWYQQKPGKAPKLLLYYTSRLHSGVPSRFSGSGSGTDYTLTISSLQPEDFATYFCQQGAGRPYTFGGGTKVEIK | 317000 M⁻¹ s⁻¹
hz140-Hm12/hz182-L (antibody, V domains shown) VH: QVQLVQSGAEVKKPGASVKVSCKASGYTFTNYVMSWVRQAPGQRLEWMGYINPYNDAIKYNEKFTGRVTITRDTSASTAYMELSSLRSEDTAVYYCAREGDFYANYGRLGFAYWGQGTLVTVSS VL: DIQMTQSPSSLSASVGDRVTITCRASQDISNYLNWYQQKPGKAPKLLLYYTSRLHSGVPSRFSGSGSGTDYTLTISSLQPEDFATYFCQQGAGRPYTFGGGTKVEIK | 224000 M⁻¹ s⁻¹
hz140-Hm1/hz182-L (antibody, V domains shown) VH: QVQLVQSGAEVKKPGASVKVSCKASGYTFTNYVMHWVRQAPGQRLEWMGYINPYNDGIKYNEKFTGRVTITRDTSASTAYMELSSLRSEDTAVYYCAREGDFYANYGRLGFAYWGQGTLVTVSS VL: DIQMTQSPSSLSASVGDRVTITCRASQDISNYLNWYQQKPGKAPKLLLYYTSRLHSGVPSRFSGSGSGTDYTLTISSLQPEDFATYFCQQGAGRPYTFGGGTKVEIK | 325000 M⁻¹ s⁻¹
hz140-Hm3/hz182-L (antibody, V domains shown) VH: QVQLVQSGAEVKKPGASVKVSCKASGYKFTNYAMHWVRQAPGQRLEWMGYINPYNDGIKYNEKFTGRVTITRDTSASTAYMELSSLRSEDTAVYYCAREGDFYANYGRLGFAYWGQGTLVTVSS VL: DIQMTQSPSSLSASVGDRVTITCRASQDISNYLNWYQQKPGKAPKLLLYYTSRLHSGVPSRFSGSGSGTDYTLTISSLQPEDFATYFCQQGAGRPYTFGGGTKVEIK | 299000 M⁻¹ s⁻¹
hz140-Hm9/hz182-L (antibody, V domains shown) VH: QVQLVQSGAEVKKPGASVKVSCKASGYKFTNYVMHWVRQAPGQRLEWMGYINPYNDAIKYNEKFTGRVTITRDTSASTAYMELSSLRSEDTAVYYCAREGDFYANYGRLGFAYWGQGTLVTVSS VL: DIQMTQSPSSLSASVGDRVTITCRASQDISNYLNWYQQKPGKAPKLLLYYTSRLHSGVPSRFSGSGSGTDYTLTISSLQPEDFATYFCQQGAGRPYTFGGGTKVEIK | 223000 M⁻¹ s⁻¹
hz140-Hm6/hz182-L (antibody, V domains shown) VH: QVQLVQSGAEVKKPGASVKVSCKASGYKFTNYVMHWVRQAPGQRLEWMGYINPGNDGIKYNEKFTGRVTITRDTSASTAYMELSSLRSEDTAVYYCAREGDFYANYGRLGFAYWGQGTLVTVSS VL: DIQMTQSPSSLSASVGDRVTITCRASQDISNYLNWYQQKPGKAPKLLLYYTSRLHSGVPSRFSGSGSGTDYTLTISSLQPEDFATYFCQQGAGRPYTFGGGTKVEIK | 370000 M⁻¹ s⁻¹
